test description: Toxicity liver stage against HepG2, at 10uM
Type: cell-based
Set-up: test concentration 10 uM, cell line HepG2-A16-CD81EGFP
particulars: human, HepG2-A16-CD81EGFP cells; read-out: INHIBITION
readout name: cytotoxicity at 10 µM (%)
Expressed in %, but write only the number.

Some solved entries appear below for comparison.
Give the measured cytotoxicity at 10 µM of CN(Cc1ccco1)C(=O)CN1CCOC(Cn2cncn2)C1 (stereo unspecified) .
-7.36

Field entry: "COc1ncc(NS(=O)(=O)c2ccc(F)cc2F)cn1"
-3.96

Another compound to look at: OC1CN(Cc2ccccc2)CCN(c2ccncc2)C1 (stereo unspecified)
-4.74

Another: "N#Cc1ccc(CNc2cnn(CCN3CCOCC3)c2)cc1"
-5.75

Again, but for "Cc1c(Cl)c(C(=O)N2C[C@@H](C(=O)O)[C@H](c3cccnc3)C2)nn1C"
6.21

Also COCCN1CC2(CCCN(C(=O)NCc3ccccc3)C2)CCC1=O (stereo unspecified) , if possible.
-9.31

Please give the result for "CNc1cc2c(nn1)CCN(C(=O)c1cc(C)n(C3CC3)c1C)C2" too.
-14.4

Now try CC(C)c1n[nH]c(C2CN(C(=O)CCn3ccccc3=O)CCO2)n1 (stereo unspecified) .
4.48

New cases:
So what does the record say about cytotoxicity at 10 µM for Cc1ncsc1CCC(=O)N1CCn2cccc2C1c1cccnc1 (stereo unspecified) ?
-9.57

Proceed to CN(C(=O)Cc1ccn(C)c1)C1CCCN(C2Cc3ccccc3C2)C1 (stereo unspecified)
4.77

Further, for "CC(C)c1nc(CN(C)C(=O)[C@H](N)Cc2ccc(Cl)cc2)cs1" ?
-154
